Where do these numbers come from? They come from PubChem BioAssay.

# assayProtocol: signal quenchers or enhancers, Cy5 substrate/SSB – biochemical, NIH Clinical Collection, E. coli SSB, artefact control for HCV NS3 helicase inhibitor project (AID 743268)
# testConditions: Cy5-oligo bound E. coli SSB, fluorescence interference
Starred links: 1 amine or outer side, 2 acyl side, 3 side chain; linkers in the order of their positions; H or OH if unused. Positions of bridges follow the written chain, without caps; N, C: chain ends. Non-standard residues stand in square brackets, D forms with d. Residues, ends and D or L forms follow the SMILES beside them. Chains are numbered I, II in the order given. Actinocin(9to1) = Cc1c2oc3c(C)ccc(C(=O)[*:1])c3nc-2c(C(=O)[*:2])c(N)c1=O; NMeV = CN[C@H](C(=O)O)C(C)C; Sar = CNCC(=O)O
Decide by fluorescence ratio: equal to or exceeding 1 means Y, less means N.

>>> labelclass("CN1CCN(C2=Nc3ccccc3Oc3ccc(Cl)cc32)CC1")
"N"
>>> labelclass("O=C(O)/C=C/c1ccc(Cn2ccnc2)cc1")
"Y"
>>> labelclass("Nc1nc(N)nc(-c2cc(Cl)ccc2Cl)n1")
"Y"
>>> labelclass("Nc1ccc(O)c(C(=O)O)c1")
"N"
>>> labelclass("CN(C)CC/C=C1/c2ccccc2COc2ccc(CC(=O)O)cc21")
"N"
>>> labelclass("OCc1cccnc1")
"N"
>>> labelclass("O=C(NCCN1CCOCC1)c1ccc(Cl)cc1")
"Y"
>>> labelclass("CC(C)(C(=O)c1cccnc1)c1cccnc1")
"Y"
>>> labelclass("Cc1c2oc3c(C)ccc(C(=O)N[C@@H]4C(=O)N[C@H](C(C)C)C(=O)N5CCC[C@H]5C(=O)N(C)CC(=O)N(C)[C@@H](C(C)C)C(=O)O[C@@H]4C)c3nc-2c(C(=O)N[C@@H]2C(=O)N[C@H](C(C)C)C(=O)N3CCC[C@H]3C(=O)N(C)CC(=O)N(C)[C@@H](C(C)C)C(=O)O[C@@H]2C)c(N)c1=O (I: T[dV]P[Sar][NMeV] / II: T[dV]P[Sar][NMeV]; ester I:1-I:C, II:1-II:C; linker I:N-II:N via Actinocin(9to1))")
"N"
>>> labelclass("CC(Cc1ccccc1)(NC(=O)CN)c1ccccc1 (stereo not drawn)")
"Y"
>>> labelclass("CCN1CCCC1CNC(=O)c1cc(S(=O)(=O)CC)c(N)cc1OC (stereo not drawn)")
"Y"
>>> labelclass("Cn1nnc2c(C(N)=O)ncn2c1=O")
"Y"
>>> labelclass("Cc1cccc(C)c1NC(=O)C(C)N (stereo not drawn)")
"Y"
>>> labelclass("CCOC(=O)c1ncn2c1CN(C)C(=O)c1cc(F)ccc1-2")
"Y"
>>> labelclass("Nc1nnc(-c2cccc(Cl)c2Cl)c(N)n1")
"Y"
>>> labelclass("CCc1oc2ccccc2c1C(=O)c1cc(Br)c(O)c(Br)c1")
"N"
>>> labelclass("COc1ccc(C2CNC(=O)C2)cc1OC1CCCC1 (stereo not drawn)")
"Y"
>>> labelclass("Cc1cccc(C)c1OCC(C)N (stereo not drawn)")
"Y"
>>> labelclass("Nc1nc2c(ncn2CCC(CO)CO)c(=O)[nH]1")
"Y"
>>> labelclass("C[C@@H]1CN(CCCn2c3ccccc3c3ccccc32)C[C@H](C)N1")
"N"
>>> labelclass("CC[N+](C)(CC)CCOC(=O)C(O)(c1ccccc1)C1CCCCC1 (stereo not drawn)")
"N"
>>> labelclass("CCc1c(C)[nH]c2c1C(=O)C(CN1CCOCC1)CC2 (stereo not drawn)")
"Y"
>>> labelclass("COc1cc(C)nc(-n2nc(C)cc2OC)n1")
"N"
>>> labelclass("CC(=O)OCC(=O)NCCCOc1cccc(CN2CCCCC2)c1")
"Y"
>>> labelclass("CC(C)(C)NC(=O)[C@H]1CC[C@H]2[C@@H]3CC[C@H]4NC(=O)C=C[C@]4(C)[C@H]3CC[C@]12C")
"Y"
>>> labelclass("CC1(C)S[C@@H]2[C@H](N=CN3CCCCCC3)C(=O)N2[C@H]1C(=O)O")
"Y"
>>> labelclass("CC(C)[C@H](N)C(=O)OCCOCn1cnc2c(=O)[nH]c(N)nc21")
"Y"

* * *

Measured normalised cell number values are reported for all entries that follow.
# assayProtocol: EMT-state selective cytotoxicity in co-culture – imaging, PC-3E GFP, TEM4-18 mCherry, primary screen (AID 1345086);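 note: cells exposed to compound for 72 h before imaging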
# testConditions: PC-3E GFP / TEM4-18 mCherry co-culture, imaging cell counts; measured here: mesenchymal TEM4-18 mCherry cell survival; at 1 µM
measure: normalised cell number

>>> readoutnumber("O=C1C(O)=C(O)C(=O)C(O)=C1O")
1.12
>>> readoutnumber("CC(=O)Nc1ccc(S(=O)(=O)Nc2ccc([N+](=O)[O-])cc2)cc1")
1.08
>>> readoutnumber("NC(=O)NO")
1.1
>>> readoutnumber("COc1ccc(CN(CCN(C)C)c2ncccn2)cc1")
1.2
>>> readoutnumber("COCCCOc1cc(C[C@@H](C[C@H](N)[C@@H](O)C[C@H](C(=O)NCC(C)(C)C(N)=O)C(C)C)C(C)C)ccc1OC")
0.96
>>> readoutnumber("CCCCCCOc1ccccc1C(N)=O")
0.94
>>> readoutnumber("Cc1nc(-c2ccc(OCC(C)C)c(C#N)c2)sc1C(=O)O")
1.08
>>> readoutnumber("COC(=O)C1=C(C)NC(C)=C(C(=O)OCC(C)C)C1c1ccccc1[N+](=O)[O-] (configuration not stated)")
1.08
>>> readoutnumber("Cc1ccnc(NS(=O)(=O)c2ccc(N)cc2)n1")
1.33
>>> readoutnumber("O=C(O)c1ccccc1C(=O)Nc1ccc(S(=O)(=O)Nc2nccs2)cc1")
1.17
>>> readoutnumber("Cc1nnc(NS(=O)(=O)c2ccc(N)cc2)s1")
1.33
>>> readoutnumber("NCC1CCC(C(=O)O)CC1 (configuration not stated)")
1.27

* * *

Measured viability decrease (inhibition) values are reported for all entries that follow.
# assayProtocol: NPC library primary testing for decreased DLD-1 cell viability via CellTiter-Glo (AID 1117346)
# testConditions: DLD-1 viability, CellTiter-Glo luminescence; at 20 µM (top of the series)
measure: viability decrease (inhibition) (%)

>>> readoutnumber("CC1=C(C(=O)O)N2C(=O)[C@@H](NC(=O)[C@H](N)c3ccc(O)cc3)[C@H]2SC1")
7.3
>>> readoutnumber("Cc1c(N(C)CS(=O)(=O)O)c(=O)n(-c2ccccc2)n1C")
3.35
>>> readoutnumber("CCOC(=O)c1ccc(N)cc1")
18.2
>>> readoutnumber("CO[C@H]1C=CO[C@@]2(C)Oc3c(C)c(O)c4c(O)c(c(/C=N/N5CCN(C)CC5)c(O)c4c3C2=O)NC(=O)/C(C)=C\\C=C[C@H](C)[C@H](O)[C@@H](C)[C@@H](O)[C@@H](C)[C@H](OC(C)=O)[C@@H]1C")
65.6
>>> readoutnumber("NC(=O)c1ncn([C@@H]2O[C@H](CO)[C@@H](O)[C@H]2O)c1O")
4.7
>>> readoutnumber("CC(=O)Oc1c(C)c(C)c2c(c1C)CC[C@@](C)(CCC[C@H](C)CCC[C@H](C)CCCC(C)C)O2")
-19.7
>>> readoutnumber("CN(C)c1ccc(C(=C2C=CC(=[N+](C)C)C=C2)c2ccc(N(C)C)cc2)cc1")
106
>>> readoutnumber("CCCCOc1ccc(OCCCN2CCOCC2)cc1")
22.7
>>> readoutnumber("Nc1ccc(C(=O)O)cc1")
-4.7
>>> readoutnumber("CN(C)C(=O)Oc1cccc([N+](C)(C)C)c1")
-5.8
>>> readoutnumber("Nc1nc(N)nc(-c2cc(Cl)ccc2Cl)n1")
-18.2
>>> readoutnumber("CN1CCOC(c2ccccc2)c2ccccc2C1 (stereo not drawn)")
-7.2
>>> readoutnumber("Cc1cc(-c2ccccc2)nnc1NCCN1CCOCC1")
-6.5
>>> readoutnumber("O=c1c(O)c(-c2ccc(O)c(O)c2)oc2cc(O)cc(O)c12")
46.2
>>> readoutnumber("O=C(N[C@H](CO)[C@H](O)c1ccc([N+](=O)[O-])cc1)C(Cl)Cl")
-7
>>> readoutnumber("CC(CN(C)C)CN1c2ccccc2CCc2ccccc21 (stereo not drawn)")
1.5
>>> readoutnumber("O=C1c2ccccc2C(=O)C1c1ccccc1")
-4.85
>>> readoutnumber("CCN(CCCc1ccccc1)CCCc1ccccc1")
60.1
>>> readoutnumber("CC(C)(C)CC(C)(C)c1ccc(O)c(Cc2ccc(Cl)cc2Cl)c1")
102
>>> readoutnumber("CC(C)NCC(O)c1ccc2ccccc2c1 (stereo not drawn)")
19.4
>>> readoutnumber("CNNCc1ccc(C(=O)NC(C)C)cc1")
-10.5
>>> readoutnumber("COc1cc(C(=O)NC2CCCNC2)cc(OC)c1OC (stereo not drawn)")
15.8
>>> readoutnumber("Cc1cnc(NC(=O)C2=C(O)c3ccccc3S(=O)(=O)N2C)s1")
4.7

* * *

Measured glutamate uptake change values are reported for all entries that follow.
# assayProtocol: glutamate transport activators, MN-1 cells, MN-1 cell line (AID 1612);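 note: tested at 1 µM final; 0% = mean of DMSO vehicle wells on each plate; positive means more glutamate uptake than control and negative means less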
# testConditions: MN-1 motor neuron cells, stronger effect = higher value
measure: glutamate uptake change (%)

>>> readoutnumber("CC(N)CCCC(C)(C)O (stereo not drawn)")
-4.36
>>> readoutnumber("CCN(CC)CCOCCOC(=O)C1(c2ccccc2)CCCC1")
7.48
>>> readoutnumber("CC(CN(C)C)CN1c2ccccc2CCc2ccccc21 (stereo not drawn)")
14.6
>>> readoutnumber("Clc1ccccc1C(c1ccccc1)(c1ccccc1)n1ccnc1")
-22.9
>>> readoutnumber("CCOC(=O)[C@H](CCc1ccccc1)N[C@@H](C)C(=O)N1CCC[C@H]1C(=O)O")
-6.34
>>> readoutnumber("Oc1cccc(O)c1")
8.45
>>> readoutnumber("Nc1ccc(C(=O)O)c(O)c1")
2.47
>>> readoutnumber("N=C(N)N")
5.8
>>> readoutnumber("CC(=O)OC/C=C(C)/C=C/C=C(C)/C=C/C1=C(C)CCCC1(C)C")
-12.9
>>> readoutnumber("CCN(CC)CCOC(=O)C(Cc1cccc2ccccc12)CC1CCCO1 (stereo not drawn)")
-20.3
>>> readoutnumber("O=C(O)CCC(=O)c1ccc(-c2ccccc2)cc1")
6.02
>>> readoutnumber("C=CCc1ccc(O)c(OC)c1")
-8.45
>>> readoutnumber("CCCCOc1ccc(C(=O)CCN2CCCCC2)cc1")
1.68
